Ref: patent US6693108B2

Target: activated JNK3 (Homo sapiens, UniProt P53779)
Construct: One such construct encodes amino acid residues Ser40-Glu402 of JNK3α1 and is preceded by Met and Gly residues; Met-Gly (initiation Met plus Gly added to create the NcoI site) (N)
Sequence (P53779 40-402): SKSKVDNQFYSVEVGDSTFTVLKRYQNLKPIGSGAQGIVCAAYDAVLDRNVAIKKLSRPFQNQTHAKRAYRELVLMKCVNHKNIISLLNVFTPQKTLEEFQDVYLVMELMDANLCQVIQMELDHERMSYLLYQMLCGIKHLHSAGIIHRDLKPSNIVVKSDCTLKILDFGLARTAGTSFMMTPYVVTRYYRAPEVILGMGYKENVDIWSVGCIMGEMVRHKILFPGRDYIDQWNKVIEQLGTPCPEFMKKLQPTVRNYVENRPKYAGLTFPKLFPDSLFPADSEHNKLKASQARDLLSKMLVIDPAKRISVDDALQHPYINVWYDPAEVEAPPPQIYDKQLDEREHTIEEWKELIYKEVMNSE
Assay: JNK3 inhibition, spectrophotometric coupled-enzyme assay
Conditions: read-out: Activity in the JNK3 Inhibition Assay (Ki rating)
pKi: −log10 of the molar value.

Smiles str: Cc1onc(-c2ccccc2)c1-c1ccnc(Nc2cccc(C#N)c2)n1
Test system: activated JNK3 (Homo sapiens, UniProt P53779)
pKi: > 7.00

Smiles str: Cc1onc(-c2ccccc2C(F)(F)F)c1-c1ccnc(Nc2ccc(C#N)c(F)c2)n1
Test system: activated JNK3 (Homo sapiens, UniProt P53779)
pKi: < 6.00

Smiles str: Cc1onc(-c2c(F)cccc2F)c1-c1ccnc(NC(=O)c2ccc3ccccc3c2)n1
Test system: activated JNK3 (Homo sapiens, UniProt P53779)
pKi: 6.00 to 7.00

Smiles str: COC(=O)c1ccc(C(=O)Nc2nccc(-c3c(-c4ccccc4)noc3C)n2)cc1
Test system: activated JNK3 (Homo sapiens, UniProt P53779)
pKi: 6.00 to 7.00

Smiles str: Cc1onc(-c2c(F)cccc2F)c1-c1ccnc(NC(=O)c2cccc(C#N)c2)n1
Test system: activated JNK3 (Homo sapiens, UniProt P53779)
pKi: 6.00 to 7.00

Smiles str: COc1cc(C(=O)Nc2nccc(-c3c(-c4cccc([N+](=O)[O-])c4)noc3C)n2)cc(OC)c1OC
Test system: activated JNK3 (Homo sapiens, UniProt P53779)
pKi: < 6.00

Smiles str: OCc1onc(-c2ccc(F)cc2)c1-c1ccnc(NC2CCCCC2)n1
Test system: activated JNK3 (Homo sapiens, UniProt P53779)
pKi: > 7.00

Smiles str: Cc1onc(-c2ccccc2)c1-c1ccnc(Nc2cccc(CCC(=O)O)c2)c1
Test system: activated JNK3 (Homo sapiens, UniProt P53779)
pKi: > 7.00

Smiles str: Cc1ccc2cc(Nc3nccc(-c4c(-c5ccccc5C)noc4C)n3)ccc2n1
Test system: activated JNK3 (Homo sapiens, UniProt P53779)
pKi: 6.00 to 7.00

Smiles str: Cc1onc(-c2c(F)cccc2F)c1-c1ccnc(Nc2cccc(C#N)c2)n1
Test system: activated JNK3 (Homo sapiens, UniProt P53779)
pKi: > 7.00

Smiles str: Cc1onc(-c2ccc3c(c2)OCO3)c1-c1ccnc(Nc2ccccc2)n1
Test system: activated JNK3 (Homo sapiens, UniProt P53779)
pKi: 6.00 to 7.00

Smiles str: Cc1onc(-c2cc(F)cc(F)c2)c1-c1ccnc(Nc2ccccc2)n1
Test system: activated JNK3 (Homo sapiens, UniProt P53779)
pKi: 6.00 to 7.00

Smiles str: COc1cc(OC)cc(C(=O)Nc2nccc(-c3c(-c4cccc(OCc5ccccc5)c4)noc3C)n2)c1
Test system: activated JNK3 (Homo sapiens, UniProt P53779)
pKi: 6.00 to 7.00

Smiles str: COc1cccc(C(=O)Nc2nccc(-c3c(-c4ccccc4F)noc3C)n2)c1
Test system: activated JNK3 (Homo sapiens, UniProt P53779)
pKi: 6.00 to 7.00

Smiles str: Cc1ccccc1-c1noc(C)c1-c1ccnc(Nc2ccc(C#N)c(F)c2)n1
Test system: activated JNK3 (Homo sapiens, UniProt P53779)
pKi: > 7.00

Smiles str: Cc1onc(-c2c(F)cccc2F)c1-c1ccnc(Nc2ccccc2)n1
Test system: activated JNK3 (Homo sapiens, UniProt P53779)
pKi: > 7.00

Smiles str: Cc1ccccc1C(=O)Nc1nccc(-c2c(-c3ccccc3)noc2C)n1
Test system: activated JNK3 (Homo sapiens, UniProt P53779)
pKi: < 6.00

Smiles str: COc1ccc2ccccc2c1Nc1nccc(-c2c(-c3ccccc3)noc2C)n1
Test system: activated JNK3 (Homo sapiens, UniProt P53779)
pKi: < 6.00
